Value source: PubChem BioAssay AID1963429

- Tested on: 126254-015-R-J1-PDC complex spheroid growth, % test/control;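 note: spheroids exposed to compound for seven days; 100% = DMSO vehicle control wells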
- measurementNotes: Anticancer human tumor 126254-015-R-J1-PDC patient-derived soft tissue sarcoma cell line growth inhibition [Asc]
- recordedConditions: second compound 0.1 µM; first compound 0.0316 µM; stronger effect = lower value
measuredMetric: viability, T/C

compound: CNC(C)C(=O)NC1CN(S(=O)(=O)c2cccc(S(=O)(=O)N3CCC4CCC(C(=O)NC(c5ccccc5)c5ccccc5)N4C(=O)C(NC(=O)C(C)NC)C3)c2)CCC2CCC(C(=O)NC(c3ccccc3)c3ccccc3)N2C1=O (configuration not stated) + Cc1c(S(C)(=O)=O)c(-c2cc(F)cc(N3CCN(c4ccc(NS(=O)(=O)c5ccc(NC(CCN6CCC(C(=O)OCCCP(=O)(O)O)CC6)CSc6ccccc6)c(S(=O)(=O)C(F)(F)F)c5)cc4)CC3)c2)c(-c2ccc(Cl)cc2)n1C(C)C
viability, T/C: 67.3%

Query block: Recall the recorded viability, T/C for C=CC(=O)N1CCN(c2nc(=O)n(-c3c(C)ccnc3C(C)C)c3nc(-c4c(O)cccc4F)c(F)cc23)C(C)C1 (configuration not stated) + CNC(C)C(=O)NC1CN(S(=O)(=O)c2cccc(S(=O)(=O)N3CCC4CCC(C(=O)NC(c5ccccc5)c5ccccc5)N4C(=O)C(NC(=O)C(C)NC)C3)c2)CCC2CCC(C(=O)NC(c3ccccc3)c3ccccc3)N2C1=O with 126254-015-R-J1-PDC complex spheroid growth, % test/control and state it.
Result block: 70.7%
